# system-name: human GLP1-R (Homo sapiens)
# Sequence (P43220 24-463): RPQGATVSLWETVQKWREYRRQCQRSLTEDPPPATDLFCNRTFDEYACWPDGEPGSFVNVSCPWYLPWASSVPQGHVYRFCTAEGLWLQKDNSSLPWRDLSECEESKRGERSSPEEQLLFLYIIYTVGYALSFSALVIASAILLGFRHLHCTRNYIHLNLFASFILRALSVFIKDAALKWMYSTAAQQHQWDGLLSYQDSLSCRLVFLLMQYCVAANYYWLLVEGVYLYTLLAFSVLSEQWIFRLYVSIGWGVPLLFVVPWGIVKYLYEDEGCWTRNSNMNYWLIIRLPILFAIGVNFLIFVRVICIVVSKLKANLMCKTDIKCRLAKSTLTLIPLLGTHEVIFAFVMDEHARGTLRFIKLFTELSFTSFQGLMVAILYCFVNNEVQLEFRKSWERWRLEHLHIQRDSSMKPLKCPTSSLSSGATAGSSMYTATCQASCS
# method-summary: GLP1-R internalization assay in HEK293 cells
# Format: cell-based
# settings: HEK293 cells expressing SNAP-GLP-1R; read-out: GLP1R Internalization EC50
pEC50: −log10 of the molar value. Starred links: 1 amine or outer side, 2 acyl side, 3 side chain; linkers in the order of their positions; H or OH if unused. Non-standard residues stand in square brackets, D forms with d. Groups on a side chain read outwards from the residue. No end group written: not given here. *: point of attachment. C20 diacid = O=C(O)CCCCCCCCCCCCCCCCCCC(=O)*; C18 diacid = O=C(O)CCCCCCCCCCCCCCCCC(=O)*; γGlu = O=C(O)[C@H](CCC(=O)[*:2])N[*:1]; αMeL = CC(C)C[C@](C)(N)C(=O)O; Orn = NCCC[C@H](N)C(=O)O; AEEA = NCCOCCOCC(=O)O; Aib = CC(C)(N)C(=O)O

>  <substance>
H-Y[Aib]QGTFTSDFSK[αMeL]LDKK([AEEA-γGlu-C20 diacid])AQ[Aib]AFIEYLLE[Aib]GPSSGAPPPSSG-NH2 [Example 44]

>  <pEC50>
7.29

$$$$
>  <substance>
Y[Aib]QGTFTSDFSK[αMeL]LDKK([AEEA-γGlu-C18 diacid])AQ[Aib]AFIEYLLEGGPSSGAPPPSEG-NH2 [Example 48]

>  <pEC50>
7.36

$$$$
>  <substance>
H-Y[Aib]QGTFTSDFSK[αMeL]LDKK([AEEA-γGlu-C18 diacid])AQ[Aib]AFIEYLIE[Aib]GESSGAPPPSGE-NH2 [Example 217]

>  <pEC50>
7.56

$$$$
>  <substance>
H-Y[Aib]QGTFTSDFS[Orn][αMeL]LDKK([AEEA-γGlu-C18 diacid])AQ[Aib]AFIEWLLEGGTSSGAPPPSGT-NH2 [Example 177]

>  <pEC50>
7.10

$$$$
>  <substance>
H-Y[Aib]QGTFTSDFS[Orn][αMeL]LDKK([AEEA-γGlu-C18 diacid])AQ[Aib]AFIEWLLEGGHSSGAPPPEGS-NH2 [Example 126]

>  <pEC50>
7.20

$$$$
>  <substance>
H-Y[Aib]QGTFTSDFS[Orn][αMeL]LDKK([γGlu-AEEA-γGlu-C18 diacid])AQ[Aib]AFIEYLLE[Aib]GPSSGAPPPSGS-NH2 [Example 193]

>  <pEC50>
6.88

$$$$

---

# system-name: hGLP-1R (Homo sapiens)
# method-summary: Functional cAMP activity in the presence of 1% HSA
# Assay type: cell-based
# settings: read-out: cAMP Rel EC50, hGLP-1R
Starred links: 1 amine or outer side, 2 acyl side, 3 side chain; linkers in the order of their positions; H or OH if unused. Non-standard residues stand in square brackets, D forms with d. Groups on a side chain read outwards from the residue. No end group written: not given here. *: point of attachment. C20 diacid = O=C(O)CCCCCCCCCCCCCCCCCCC(=O)*; C18 diacid = O=C(O)CCCCCCCCCCCCCCCCC(=O)*; Phe(4-CN) = N#Cc1ccc(C[C@H](N)C(=O)O)cc1; αMePhe(2-F) = C[C@](N)(Cc1ccccc1F)C(=O)O; γGlu = O=C(O)[C@H](CCC(=O)[*:2])N[*:1]; αMe4Pal = C[C@](N)(Cc1ccncc1)C(=O)O; αMeY = C[C@](N)(Cc1ccc(O)cc1)C(=O)O; αMeF = C[C@](N)(Cc1ccccc1)C(=O)O; 4Pal = N[C@@H](Cc1ccncc1)C(=O)O; αMeL = CC(C)C[C@](C)(N)C(=O)O; αMeS = C[C@](N)(CO)C(=O)O; Orn = NCCC[C@H](N)C(=O)O; AEEA = NCCOCCOCC(=O)O; Aib = CC(C)(N)C(=O)O
Reported EC50 is given for each of the following substances.

>  <substance>
H-Y[Aib]QGTFTSD[4Pal]S[Orn][αMeL]LDKK([γGlu-γGlu-C18 diacid])AQ[αMe4Pal]AFIE[αMeY]LIAGGPSSGAPPPEGS-NH2 [Example 1015]

>  <EC50 (nM)>
92.4

$$$$
>  <substance>
H-Y[Aib]QGTFTSD[Phe(4-CN)]S[Orn][αMeL]LDKK([AEEA-γGlu-C18 diacid])AQ[Aib]AFIEYLLE[Aib]GHSSGAPPPSGS-NH2 [Example 190]

>  <EC50 (nM)>
172

$$$$
>  <substance>
H-Y[Aib]QGTFTSD[4Pal]SQ[αMeL]LDKK([γGlu-γGlu-C18 diacid])AQ[αMe4Pal]AFIE[αMe4Pal]LIE[Aib]GPSSGEPPPSGSEE-NH2 [Example 1125]

>  <EC50 (nM)>
243

$$$$
>  <substance>
H-Y[Aib]QGT[αMeF]TSD[4Pal][αMeS]I[αMeL]LD[Orn]K([AEEA-γGlu-C18 diacid])AQ[αMe4Pal]EFI[dE][αMeY]LIEGGPSSGAPPPSGSE-NH2 [Example 1166]

>  <EC50 (nM)>
65.6

$$$$
>  <substance>
Y[Aib]QGTFTSD[4Pal]SQ[αMeL]LDKK([AEEA-γGlu-C18 diacid])AQ[αMe4Pal]AFIEYLIE[dA]GPSSGAPPPSGS-NH2 [Example 829]

>  <EC50 (nM)>
130

$$$$
>  <substance>
H-Y[Aib]QGTFTSDFSK[αMeL]LDKK([AEEA-AEEA-γGlu-C18 diacid])AQ[Aib]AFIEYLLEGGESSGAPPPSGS-NH2 [Example 147]

>  <EC50 (nM)>
964

$$$$
>  <substance>
H-Y[Aib]QGTFTSDFS[Orn][αMeL]LDKK([AEEA-γGlu-C20 diacid])AQ[Aib]AFIEYLLAGGPSSGAPPPSGSE-NH2 [Example 84]

>  <EC50 (nM)>
701

$$$$
>  <substance>
Y[Aib]QGTFTSD[4Pal]S[Orn][αMeL]LD[Orn]K([γGlu-γGlu-C18 diacid])AQ[αMe4Pal]AFIEYLIAGGPSSGAPPPSGSE-NH2 [Example 1011]

>  <EC50 (nM)>
148

$$$$
>  <substance>
H-Y[Aib]QGT[αMePhe(2-F)]TSD[4Pal][αMeS]I[αMeL]LD[Orn]K([γGlu-γGlu-C18 diacid])AQ[Aib][Orn]FI[dE][αMeY]LSEGGPSSGEPPPSGSE-NH2 [Example 560]

>  <EC50 (nM)>
52

$$$$
>  <substance>
H-Y[Aib]QGT[αMePhe(2-F)]TSD[4Pal]SILLDKK([γGlu-γGlu-C18 diacid])AQ[Aib]AFIE[αMeY]LEEGGPSSGAPPPSGEGE-NH2 [Example 667]

>  <EC50 (nM)>
33

$$$$
>  <substance>
H-Y[Aib]QGTFTSDFS[Orn][αMeL]LDKK([AEEA-γGlu-C18 diacid])AQ[Aib]AFIEYLLEGGPSSGAPPPGGQ-NH2 [Example 159]

>  <EC50 (nM)>
588

$$$$
>  <substance>
H-Y[Aib]QGT[αMePhe(2-F)]TSD[4Pal][αMeS]I[αMeL]LD[Orn]K([γGlu-γGlu-C18 diacid])AQ[Aib][Orn]FI[dE][αMeY]LAEGGPSSGEPPPSGTGE-NH2 [Example 545]

>  <EC50 (nM)>
40.2

$$$$
>  <substance>
H-Y[Aib]QGTFTSDFS[Orn][αMeL]LDKK([AEEA-γGlu-C18 diacid])AQ[Aib]AFIEWLLEGGESSGEPPPSGE-NH2 [Example 123]

>  <EC50 (nM)>
1500

$$$$
>  <substance>
H-Y[Aib]QGT[αMePhe(2-F)]TSD[4Pal]SILLDKK([γGlu-γGlu-C18 diacid])AQ[Aib]AFIE[αMeY]LEEGGPSSGAPPPSGTE-NH2 [Example 551]

>  <EC50 (nM)>
38.2

$$$$
>  <substance>
H-Y[Aib]QGT[αMePhe(2-F)]TSD[4Pal][αMeS]I[αMeL]LD[Orn]K([γGlu-γGlu-C18 diacid])AQ[αMe4Pal]EFI[dE][αMeY]LIEGGPSSGAPPPEGGGE-NH2 [Example 761]

>  <EC50 (nM)>
26.1

$$$$
>  <substance>
H-Y[Aib]QGT[αMePhe(2-F)]TSD[4Pal][αMeS]I[αMeL]LD[Orn]K([AEEA-γGlu-C18 diacid])AQ[αMe4Pal]EFI[dE][αMeY]LIEGGPSSGEPPPTGE-NH2 [Example 1143]

>  <EC50 (nM)>
49.6

$$$$
>  <substance>
H-Y[Aib]QGTFTSDFS[Orn][αMeL]LDKK([AEEA-AEEA-γGlu-C20 diacid])AQ[Aib]AFIEYLLE[Aib]GPSSGEPPPGEG-NH2 [Example 69]

>  <EC50 (nM)>
279

$$$$
>  <substance>
H-Y[Aib]QGTFTSD[4Pal]SQ[αMeL]LDKK([AEEA-γGlu-C18 diacid])AQ[αMe4Pal]AFIEWLIEGGPSSGAPPPSGT-NH2 [Example 831]

>  <EC50 (nM)>
237

$$$$
>  <substance>
H-Y[Aib]QGTFTSDFS[Orn][αMeL]LDKK([AEEA-AEEA-γGlu-C18 diacid])AQ[Aib]AFIEYLLE[Aib]GHSSGAPPPSGE-NH2 [Example 186]

>  <EC50 (nM)>
690

$$$$
>  <substance>
H-Y[Aib]QGT[αMePhe(2-F)]TSDYSI[αMeL]LD[Orn]K([AEEA-γGlu-C18 diacid])AQ[Aib]AFI[dE]YLLEGGPSSGAPPPSEG-NH2 [Example 404]

>  <EC50 (nM)>
32.2

$$$$
>  <substance>
H-Y[Aib]QGT[αMePhe(2-F)]TSD[4Pal][αMeS]I[αMeL]LD[Orn]K([γGlu-γGlu-C18 diacid])AQ[Aib][Orn]FI[dE][αMeY]LSEGGPSSGEPPPSGAEE-NH2 [Example 567]

>  <EC50 (nM)>
102

$$$$
>  <substance>
H-Y[Aib]QGTFTSDFS[Orn][αMeL]LDKK([AEEA-γGlu-C18 diacid])AQ[Aib]AFIEYLLE[Aib]GPSSGAPPPSGS-NH2 [Example 74]

>  <EC50 (nM)>
627

$$$$

Cited source for all entries: patent US20240270821A1
